Test system: AncSZ
Assay: phosphorylation enrichment, bacterial display (enrichment ratio); higher = better substrate or ligand; peptides without Tyr show the background;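 note: 11-residue human phosphosite peptides and single-mutation variants displayed on the E. coli surface, counted by deep sequencing, each peptide's frequency after selection divided by its frequency in the unselected input library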;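 note: frequency after pTyr selection over input frequency; kinase dosed for 20-30% of maximal phosphorylation in three min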
Would you please tag the item 1.0 when its phosphorylation enrichment is 1 or above, and 0.0 when it is below?

GDEAIYATVAG [NRTKtide_2018] = 1.0

Next item in the queue.
IN: I'd appreciate it if you could say whether GDEVEYMLVSF [GCLC_Y53] has phosphorylation enrichment at least equal to 1.
OUT: 1.0

====

System: c-Src
Assay: phosphorylation enrichment, bacterial display (enrichment ratio); higher = better substrate or ligand; peptides without Tyr show the background
Would you please tag the item T when its phosphorylation enrichment is 1 or above, and F when it is below?

IN: I'd appreciate it if you could say whether KPLMPSMRYSR [SMARCE1_Y73_Y73S] has phosphorylation enrichment at least equal to 1.
OUT: F

IN: I'd appreciate it if you could say whether REENGYNTYAS [FGF10_Y161_I156R] has phosphorylation enrichment at least equal to 1.
OUT: F

====

System: AncSZ
Experiment: phosphorylation enrichment, bacterial display (enrichment ratio); higher = better substrate or ligand; peptides without Tyr show the background
As shown below, each of these sequences has a reported phosphorylation enrichment value.
// print number alone

# annotated cases, reported phosphorylation enrichment shown
HHFAAYFQQGD [GPI_Y351_R347H] = 0.906
ADELEYSRTGL [MMUT_Y287_G284E] = 1.11
QTENKYVSVSG [EIF2AK3_Y565_D566V] = 0.61
RLFARYFQGDL [PDK3_Y337_YF] = 0.826
GFQPEYGQPAG [SYP_Y278_D277E_YF] = 0.685
LRWREYQRQDY [PRKRIP1_Y90_R87W] = 1.12
EKDSNYCLCRT [ASIC2_Y357] = 0.772
PFRKLYESVKK [MKI67_Y241_W238R] = 0.931
ALAHKYPGGGG [HBB_Y146_H147P] = 0.214
CDDGKYVYVVT [RPS6KA3_Y488_Y483C] = 1.48

IN: Give phosphorylation enrichment (AncSZ) of the following sequence: ATARPYSPFII [LRP5_Y1528_R1529S_YF]
OUT: 0.627

IN: Give phosphorylation enrichment (AncSZ) of the following sequence: CTTIHYTFMCN [TP53_Y234_N235T_YF]
OUT: 0.939

IN: Give phosphorylation enrichment (AncSZ) of the following sequence: PVDVAYRHGYF [PLEC_Y2967_R2969H]
OUT: 1.71

====

System: c-Abl (mouse)
Assay: phosphorylation enrichment, bacterial display (enrichment ratio); higher = better substrate or ligand; peptides without Tyr show the background
As shown below, each of these sequences has a reported phosphorylation enrichment value.

IN: Would you mind telling me what phosphorylation enrichment value was observed for IVAREYYSDAD [CAMK2A_Y106_E109D] ?
OUT: 0.828

IN: Would you mind telling me what phosphorylation enrichment value was observed for QFFQSYFNNNF [ZNF236_Y644] ?
OUT: 0.455

IN: Would you mind telling me what phosphorylation enrichment value was observed for AGKEEYSAMRD [HRAS_Y64_Q61K] ?
OUT: 0.629

IN: Would you mind telling me what phosphorylation enrichment value was observed for HGVSSYDTIIS [LDLR_Y465_V468I] ?
OUT: 1.63

IN: Would you mind telling me what phosphorylation enrichment value was observed for DAPVVYLGSFG [PRAG1_Y132_R137G] ?
OUT: 0.671

====

Biological target: MERTK (UniProt Q12866)
Sequence (Q12866 whole entry, looked up): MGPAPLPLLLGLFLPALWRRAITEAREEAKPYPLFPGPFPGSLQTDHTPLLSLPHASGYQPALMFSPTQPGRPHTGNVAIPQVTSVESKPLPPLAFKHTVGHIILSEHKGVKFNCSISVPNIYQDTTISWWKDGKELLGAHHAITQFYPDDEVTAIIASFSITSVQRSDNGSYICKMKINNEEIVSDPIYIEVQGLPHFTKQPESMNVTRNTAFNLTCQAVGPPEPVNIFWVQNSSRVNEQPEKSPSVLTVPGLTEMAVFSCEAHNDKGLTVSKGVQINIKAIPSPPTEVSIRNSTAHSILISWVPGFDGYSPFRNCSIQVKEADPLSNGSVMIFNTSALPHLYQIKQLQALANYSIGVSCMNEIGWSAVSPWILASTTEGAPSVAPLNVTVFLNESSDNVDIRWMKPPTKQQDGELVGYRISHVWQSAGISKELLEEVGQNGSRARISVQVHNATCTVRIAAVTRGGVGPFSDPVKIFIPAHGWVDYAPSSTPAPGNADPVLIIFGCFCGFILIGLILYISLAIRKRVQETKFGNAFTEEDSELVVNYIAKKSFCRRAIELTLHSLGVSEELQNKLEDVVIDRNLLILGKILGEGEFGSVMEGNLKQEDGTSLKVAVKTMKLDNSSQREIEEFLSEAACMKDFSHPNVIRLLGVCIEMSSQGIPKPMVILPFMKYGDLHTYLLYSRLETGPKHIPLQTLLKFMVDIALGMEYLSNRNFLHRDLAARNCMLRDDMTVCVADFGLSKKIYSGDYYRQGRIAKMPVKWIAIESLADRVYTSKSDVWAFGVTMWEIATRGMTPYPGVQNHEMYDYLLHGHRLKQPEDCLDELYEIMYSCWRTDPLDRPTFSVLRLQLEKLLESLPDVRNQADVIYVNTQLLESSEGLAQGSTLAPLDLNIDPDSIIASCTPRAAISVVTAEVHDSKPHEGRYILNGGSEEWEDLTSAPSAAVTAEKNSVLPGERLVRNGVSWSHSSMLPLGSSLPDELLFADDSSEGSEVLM
Test: phosphorylation enrichment, bacterial display (enrichment ratio); higher = better substrate or ligand; peptides without Tyr show the background
result-type: phosphorylation enrichment

# annotated cases, reported phosphorylation enrichment shown
YGAHNYHPLPV [OAT_Y55] = 2.37
REVPVYTDSEP [FAM120B_Y368] = 0.478
EGNERYEGYCV [GRIA3_Y451] = 0.418
AALVQYYMEHH [PTPN11_Y80_E76A] = 0.68
FTRNFYVRAVL [CYBA_Y88_YF] = 0.503

IN: Would you mind telling me what phosphorylation enrichment value was observed for FCRIMYDIFPF [INTS13_Y67_YF] ?
OUT: 4.83

IN: Would you mind telling me what phosphorylation enrichment value was observed for LTDRGYSFVTT [ACTA1_Y200_E197D] ?
OUT: 0.846

IN: Would you mind telling me what phosphorylation enrichment value was observed for DRFDNYIEKVR [DES_Y122_A120D] ?
OUT: 0.406

IN: Would you mind telling me what phosphorylation enrichment value was observed for HEHKGYNANFC [TGFB2_Y341_P338H] ?
OUT: 0.612

IN: Would you mind telling me what phosphorylation enrichment value was observed for EKLIQYCQSKS [AKR1B1_Y199_G204S] ?
OUT: 0.395

IN: Would you mind telling me what phosphorylation enrichment value was observed for EVTQDYGLDPK [FH_Y110_N107T] ?
OUT: 0.528

IN: Would you mind telling me what phosphorylation enrichment value was observed for QAEELYFGKMG [YES1_Y159_W158L] ?
OUT: 1.87

IN: Would you mind telling me what phosphorylation enrichment value was observed for QDTSRYTVCNL [BIRC3_Y245_S248C] ?
OUT: 0.348

IN: Would you mind telling me what phosphorylation enrichment value was observed for WGTPEYDSVVA [MAP1A_Y1883_A1881P] ?
OUT: 0.359

IN: Would you mind telling me what phosphorylation enrichment value was observed for IKIMGSSIRTI [IDS_Y490_Y490S] ?
OUT: 0.424

IN: Would you mind telling me what phosphorylation enrichment value was observed for LARDMDDKEFF [MET_Y1230_Y1230D_YF] ?
OUT: 0.523

====

As shown below, each of these sequences has a reported phosphorylation enrichment value.
System: Fer (mouse)
Assay: phosphorylation enrichment, bacterial display (enrichment ratio); higher = better substrate or ligand; peptides without Tyr show the background

IN: Would you mind telling me what phosphorylation enrichment value was observed for HGVSSYDTIIS [LDLR_Y465_V468I] ?
OUT: 0.712

IN: Would you mind telling me what phosphorylation enrichment value was observed for ALAAPYVLYPG [CEFIP_Y1332] ?
OUT: 0.54

IN: Would you mind telling me what phosphorylation enrichment value was observed for EIKLAYRRRPP [GRIN2B_Y1109_E1106K] ?
OUT: 0.98

IN: Would you mind telling me what phosphorylation enrichment value was observed for PNRILYGDFQQ [MYH7_Y715_R719Q] ?
OUT: 0.375

IN: Would you mind telling me what phosphorylation enrichment value was observed for DGTGHYLGNAC [GATA5_Y208_C210G] ?
OUT: 0.4

IN: Would you mind telling me what phosphorylation enrichment value was observed for SLIDGYYRLTE [JAK2_Y372_A377E] ?
OUT: 0.425

IN: Would you mind telling me what phosphorylation enrichment value was observed for TLLSAYQIPRT [GAB2_Y324_P320L] ?
OUT: 0.545

IN: Would you mind telling me what phosphorylation enrichment value was observed for CTTIHYYYMCN [TP53_Y234_N235Y] ?
OUT: 0.574

IN: Would you mind telling me what phosphorylation enrichment value was observed for NIFSFYLSRDP [CTSD_Y232] ?
OUT: 0.528

IN: Would you mind telling me what phosphorylation enrichment value was observed for RGVTRYIYNRE [HLA-DQB1_Y62_Y58G] ?
OUT: 0.768

IN: Would you mind telling me what phosphorylation enrichment value was observed for VVQGIYGYHHH [UFSP2_Y285_Y290H] ?
OUT: 13.8

IN: Would you mind telling me what phosphorylation enrichment value was observed for GMTLSYLFREL [NDUFS8_Y74_P79L] ?
OUT: 0.431

====

As shown below, each of these sequences has a reported phosphorylation enrichment value.
Tested on: c-Src
Assay: phosphorylation enrichment, bacterial display (enrichment ratio); higher = better substrate or ligand; peptides without Tyr show the background
// print number alone

# annotated cases, reported phosphorylation enrichment shown
KLIETYFSKNY [PLP1_Y50] = 0.41
GDEVEYMLVSF [GCLC_Y53] = 1.16
GGGGSYNDFGN [HNRNPA1_Y312] = 0.441
CQAHGYSCQLI [STK11_Y156_F157S] = 0.435
QTENKYVSVSG [EIF2AK3_Y565_D566V] = 0.693
LFSINYLHFGD [KDM4C_Y201_E206D_YF] = 0.612

IN: Would you mind telling me what phosphorylation enrichment value was observed for DDSNPYINVKL [MTHFD1_Y52_L51P] ?
OUT: 0.59

IN: Would you mind telling me what phosphorylation enrichment value was observed for LEGEEYRMSGE [KRT3_Y511] ?
OUT: 0.525

IN: Would you mind telling me what phosphorylation enrichment value was observed for VLVSQYEKLNA [AMZ2_Y26] ?
OUT: 0.389

IN: Would you mind telling me what phosphorylation enrichment value was observed for KLFIEYPTGSG [IRF2BPL_Y423] ?
OUT: 0.402

IN: Would you mind telling me what phosphorylation enrichment value was observed for LLREWYMIISR [HUWE1_Y4066] ?
OUT: 0.419

IN: Would you mind telling me what phosphorylation enrichment value was observed for INMKEYCKKDY [NTN1_Y490_K489E] ?
OUT: 0.429

IN: Would you mind telling me what phosphorylation enrichment value was observed for RASGIYYVPKG [APBB1IP_Y340] ?
OUT: 8.24

IN: Would you mind telling me what phosphorylation enrichment value was observed for PSNTEYPGPHS [TP63_Y171_D170E] ?
OUT: 0.41

IN: Would you mind telling me what phosphorylation enrichment value was observed for EILLSDLRTGY [TGM1_Y365_Y365D] ?
OUT: 0.401
